# Measurement Protocol: physchem
# Test Conditions: aqueous with cosolvent or surfactant or cyclodextrin, Solubility with Eumulgin RO35
Readout Type: solubility (µg/mL)
The figure you give is taken to be in µg/mL; do not add the unit.

Provide measured solubility value, entry: CC[C@H]1OC(=O)[C@H](C)[C@@H](O[C@H]2C[C@@](C)(OC)[C@@H](O)[C@H](C)O2)[C@H](C)[C@@H](O[C@@H]2O[C@H](C)C[C@H](N(C)C)[C@H]2O)[C@](C)(O)C[C@@H](C)C(=O)[C@H](C)[C@@H](O)[C@]1(C)O [Erythromycin]
1660

Provide measured solubility value, entry: CCC(C)n1ncn(-c2ccc(N3CCN(c4ccc(OCC5COC(Cn6cncn6)(c6ccc(Cl)cc6Cl)O5)cc4)CC3)cc2)c1=O (centres unmarked) [Itraconazole]
11
